B1: F1*; the commonest letter at each place (parent)
chain: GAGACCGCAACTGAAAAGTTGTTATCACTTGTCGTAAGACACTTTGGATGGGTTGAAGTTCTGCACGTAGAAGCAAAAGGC

- Variants of: B1
- Protocol notes: fraction ligated after 30 min (ligated reads / total reads); higher = more ligase activity
- Recorded conditions: with F1*sub RNA substrate (template-directed ligation), 42 °C
Measurement kind: fraction ligated
Returns: the value as a bare number; no unit string appended.

Consider the reported fraction ligated for these variants:
State, in one line, measured fraction ligated of A37C T43C
0.817

State, in one line, measured fraction ligated of T35C A57C
0.813

State, in one line, measured fraction ligated of T23G G34A
0.802

State, in one line, measured fraction ligated of C26T G34T
0.812

State, in one line, measured fraction ligated of G47A A48T
0.803

More entries:
State, in one line, measured fraction ligated of A39G A57C
0.821
